Recorded pIC50 values for a group of compounds are listed next.
# Tested on: HAP1 MTAP-deleted cell line
# TEST METHOD NOTES: SDMA in-cell western assay, HAP1 MTAP-deleted
# Type: cell-based
# STATED CONDITIONS: Homo sapiens, HAP1, SDMA in-cell western, HAP1 MTAP-deleted; read-out: HAP 1 MTAP deleted IC50
pIC50: −log10 of the molar value.

Some compounds with known pIC50 results, for comparison:
COMPOUND	EXPERIMENTAL TARGET	pIC50
Cc1ccc([C@H]2CC[C@@H](C)CN2C(=O)C(=O)Nc2cnc(N)c(C)c2)nc1 (racemic)	HAP1 MTAP-deleted cell line	6.00 to 7.00
COc1ncc(NC(=O)C(=O)N2C[C@H](C)[C@H](OC)C[C@H]2c2ccc3scnc3c2)cc1C(N)=O (single isomer, unassigned)	HAP1 MTAP-deleted cell line	> 7.00

Read the next record carefully.
# pIC50 (compound: CCc1cc(NC(=O)C(=O)N2C[C@@H](C)CC[C@@H]2c2ccc(N3CCC4(CCCN(C)C4)CC3)cc2)cnc1N (single isomer, unassigned) ) is > 7.00

----------
# EXPERIMENTAL TARGET: PRMT5 (Homo sapiens, UniProt O14744)
# Construct: purchased Viva (custom protein)
# Sequence (O14744 whole entry): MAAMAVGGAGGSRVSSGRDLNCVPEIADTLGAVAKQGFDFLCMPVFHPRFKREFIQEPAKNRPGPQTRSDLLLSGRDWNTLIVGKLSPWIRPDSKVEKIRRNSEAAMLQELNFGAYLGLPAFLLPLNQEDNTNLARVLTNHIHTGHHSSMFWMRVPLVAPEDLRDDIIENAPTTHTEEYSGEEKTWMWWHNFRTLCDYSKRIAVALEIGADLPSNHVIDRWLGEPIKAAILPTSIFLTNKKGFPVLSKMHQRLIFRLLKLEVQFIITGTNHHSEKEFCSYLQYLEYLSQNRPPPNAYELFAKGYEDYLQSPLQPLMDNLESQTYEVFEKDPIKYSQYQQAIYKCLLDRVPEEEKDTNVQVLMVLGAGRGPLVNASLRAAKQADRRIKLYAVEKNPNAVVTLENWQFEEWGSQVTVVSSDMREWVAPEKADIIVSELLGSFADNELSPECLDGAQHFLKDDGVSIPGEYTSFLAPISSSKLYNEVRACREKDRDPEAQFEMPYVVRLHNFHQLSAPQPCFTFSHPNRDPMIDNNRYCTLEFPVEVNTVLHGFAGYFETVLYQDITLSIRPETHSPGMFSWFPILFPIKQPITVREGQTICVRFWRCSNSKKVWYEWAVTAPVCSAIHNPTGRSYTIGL
# Sequence (Q9BQA1 whole entry partner): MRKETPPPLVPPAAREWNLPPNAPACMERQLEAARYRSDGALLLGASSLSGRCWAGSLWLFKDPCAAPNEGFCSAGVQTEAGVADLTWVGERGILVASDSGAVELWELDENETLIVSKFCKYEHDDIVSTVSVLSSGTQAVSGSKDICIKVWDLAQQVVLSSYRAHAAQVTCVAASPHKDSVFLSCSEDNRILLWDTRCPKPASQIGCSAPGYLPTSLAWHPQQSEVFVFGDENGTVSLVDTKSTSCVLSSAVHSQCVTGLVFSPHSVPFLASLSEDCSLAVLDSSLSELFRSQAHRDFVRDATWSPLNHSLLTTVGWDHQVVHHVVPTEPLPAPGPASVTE
# TEST METHOD NOTES: PRMT5 biochemical IC50 assay with MTA as cofactor
# STATED CONDITIONS: PRMT5, MTA as cofactor; read-out: MTA IC50
Recorded IC50 values for a group of molecules are listed next.

Some molecules with known IC50 results, for comparison:
MOLECULE	EXPERIMENTAL TARGET	OBSERVED MEASUREMENT
COc1ncc(NC(=O)C(=O)N2C[C@H](C)CC[C@H]2c2cccc3[nH]ncc23)cc1C(N)=O (single isomer, unassigned)	PRMT5 (Homo sapiens, UniProt O14744)	> 500 nM
Cc1cc(NC(=O)C(=O)N2C[C@H](C)CC[C@H]2c2ccc(CCN(C)C)cc2)cnc1N (single isomer, unassigned) [Compound 1358]	PRMT5 (Homo sapiens, UniProt O14744)	< 50 nM
Cc1cc(NC(=O)C(=O)N2CCCC[C@@H]2c2cccc(N(C)C)c2)cnc1N (single isomer, unassigned)	PRMT5 (Homo sapiens, UniProt O14744)	50 to 500 nM
C[C@@H]1CC[C@@H](c2ccc3nn(CCN(C)C)cc3c2)N(C(=O)C(=O)Nc2cnc(N)c(C3CC3)c2)C1 (single isomer, unassigned)	PRMT5 (Homo sapiens, UniProt O14744)	< 50 nM
Cc1cc(NC(=O)C(=O)N2C[C@H](C)CC[C@@H]2C)cnc1N (racemic)	PRMT5 (Homo sapiens, UniProt O14744)	50 to 500 nM

# IC50 (molecule: Cc1cc([C@@H]2CC[C@@H](C)CN2C(=O)C(=O)Nc2cncc(C(N)=O)c2)cc(C)c1O (single isomer, unassigned) ) is < 50 nM

----------
# Test system: HAP1 MTAP-intact cell line
# TEST METHOD NOTES: SDMA in-cell western assay, HAP1 MTAP-intact
# Assay type: cell-based
# STATED CONDITIONS: Homo sapiens, HAP1, SDMA in-cell western, HAP1 MTAP-intact; read-out: MTAP HAP1 intact IC50
QUANTITY NAME: IC50

Some molecules with known IC50 results, for comparison:
MOLECULE	IC50
Cc1cc(NC(=O)C(=O)N2CCCC[C@H]2c2cccnc2)cnc1N (single isomer, unassigned) [Compound 69]	> 1000 nM
Cc1nc2cc([C@H]3CC[C@H](C)CN3C(=O)C(=O)Nc3cnc(N)c(C4CC4)c3)ccc2s1 (single isomer, unassigned) [Compound 1313]	100 to 1000 nM

# IC50 (molecule: CCc1cc(NC(=O)C(=O)N2C[C@@H](C)CC[C@@H]2c2ccc3sc([C@@H](C)N(C)C)nc3c2)cnc1N (single isomer, unassigned) [Compound 1316] ) is < 100 nM
